growth for assorted compounds
- Tested on: SK-MEL-2 melanoma
- protocol: NCI-60 one-dose screen, 48 h (100 = growth as untreated, 0 = no growth, -100 = all killed)
- assay.setup: 10 µM unless noted
Compounds without any hit were thinned out: in the full panel of roughly 83,000, 20% have a hit. Activity calls are given as the source filed them. Rule for the calls: active = growth percent below 10; inactive = the rest.

Recorded growth for `COc1ccc([C@H]2c3[nH]c4ccccc4c3C[C@H]3C(=O)N(CCCCCCC(=O)NO)CC(=O)N23)cc1` , please?
31.4% (inactive)

So what does the record say about growth for `C=CCOc1ccc2c(C)cc(=O)oc2c1` ?
129% (inactive)

Give its growth value. Item: `FC(F)(F)c1cc(-c2nnc3n2N=C(Cl)CS3)cc(C(F)(F)F)c1`
123% (inactive)

For the compound `COc1cc(-c2nc(-c3ccc(-c4nc5ccc(F)cc5[nH]4)cc3)no2)cc(OC)c1OC` , what growth is on record?
55.6% (inactive)

With those in mind, consider the next compound.
Query: growth; subject: CCCCCN(CCCCC)C(=O)C(CCC(=O)O)NC(=O)c1ccc(Cl)c(Cl)c1 (stereo not given)
105% (inactive)
